// provenance: paper PMC2756588

# study.target: Myo3, P36006
# assay.details: SPOT array
# experimental.setup: median of control spots 468
measured.quantity: SPOT intensity
A bare number is all that is needed in reply.

MFLISPPASPPPEFD 326

Query block: Fill blank: measured SPOT intensity of the binder RSKRLFPVRPMATAH is ____.
Result block: 2

Query block: Continue with PELAPKREAPKPPAN
Result block: 497

Query block: # repeat for QQEQNTPPLPPKPKS
Result block: 0

Query block: # repeat for SGVRLPAPPPPPRRG
Result block: 0

Query block: Now give it for YHSRRHPLALGFKYV too.
Result block: 1

Query block: Entry to check: APKHAPPPVPNETDN
Result block: 497
